- Tested on: H9c2
- protocol-summary: cardiomyocyte survival under oxidative or metabolic stress – cell-based, panel, H9c2 and HL-1, H2O2, 2-deoxyglucose, ATP luminescence, SAR follow-up (AID 651642)
- experimental-context: H9c2/HL-1 cardiomyocyte 2-deoxyglucose damage, mean of runs, with 2-deoxyglucose, mean IC50 across panel
parameter: IC50

Can you look up the measured IC50 of `CCOC(=O)c1cccc(NC(=O)c2cc(-c3cc(OC)c(OC)c(OC)c3)nc3ccc(C)cc23)c1` for me?
> 79 µM

What IC50 value was documented for this compound, `COc1cc(-c2cc(C(=O)Nc3cccc(C(C)=O)c3)c3cc(Br)ccc3n2)cc(OC)c1OC` ?
> 79 µM

Could you tell me which IC50 is on file for `CCOC(=O)c1cccc(NC(=O)CNC(=O)c2cc(-c3cc(OC)c(OC)c(OC)c3)nc3ccc(OC)cc23)c1` ?
3.16 µM

What value of measured IC50 is listed for `COc1cc(-c2cc(C(=O)NCC(=O)O)c3ccccc3n2)cc(OC)c1OC` ?
> 79 µM

Fill in: IC50 of COc1ccc2c(c1OC)C(=O)N1c3ccccc3C(=O)N(Cc3ccccc3Br)C21 (stereo unspecified) is ___
> 79 µM

Return reported IC50; argument: `COc1cc(-c2cc(C(=O)NCC(=O)Nc3cccc(C(C)=O)c3)c3cc(Br)ccc3n2)cc(OC)c1OC`
6.44 µM

Consider the compound `COc1cc(-c2cc(C(=O)Nc3cccc(C(=O)N(C)C)c3)c3ccccc3n2)cc(OC)c1OC` and give its measured IC50.
> 79 µM

Fill blank: measured IC50 of the compound COc1ccc2c(c1OC)C(=O)N1c3ccccc3C(=O)N(Cc3cccc(Cl)c3Cl)C21 (stereo unspecified) is ____.
8.9 µM

Which IC50 reading was recorded for the compound `CCOC(=O)c1cccc(NC(=O)c2cc(-c3cc(OC)c(OC)c(OC)c3)nc3ccc(Cl)cc23)c1` ?
> 79 µM

What value of IC50 has been reported for the following compound? `COc1cc(-c2cc(C(=O)Nc3cccc(C(=O)NCc4ccccc4)c3)c3ccccc3n2)cc(OC)c1OC`
3.38 µM

Which IC50 is listed for COc1ccc2c(c1OC)C(=O)N1c3ccccc3C(=O)N(Cc3ccccc3C)C21 (stereo unspecified) ?
16.3 µM

So what does the record say about IC50 for `COc1cc(-c2cc(C(=O)Nc3cccc(C(=O)Nc4ccccc4)c3)c3ccccc3n2)cc(OC)c1OC` ?
4.71 µM

Name the reported IC50 value associated with the compound `COc1cc(-c2cc(C(=O)NCC(=O)Nc3cccc(C(C)=O)c3)c3cc(F)ccc3n2)cc(OC)c1OC`
6.15 µM

IC50 lookup needed for COc1ccc2c(c1OC)C(=O)N1c3ccccc3C(=O)N(Cc3ccc(C)cc3C)C21 (stereo unspecified) , thanks.
> 79 µM

Tell me the measured IC50 of `COc1cc(-c2cc(C(=O)Nc3cccc(C(C)=O)c3)c3ccccc3n2)cc(OC)c1OC` , please.
> 79 µM

For the compound shown here, `CCOC(=O)c1cccc(NC(=O)c2cc(-c3cc(OC)c(OC)c(OC)c3)nc3ccc(Br)cc23)c1` , give the reported IC50.
> 79 µM

Reported IC50 for `CCOC(=O)c1cccc(NC(=O)CNC(=O)c2cc(-c3cc(OC)c(OC)c(OC)c3)nc3ccc(Br)cc23)c1` : what is it?
4.52 µM

Param item = COc1ccc2c(c1OC)C(=O)N1c3ccccc3C(=O)N(Cc3ccccc3F)C21 (stereo unspecified) ; retrieve measured IC50.
34.3 µM

// IC50 lookup, key: COc1ccc2c(c1OC)C(=O)N1c3ccccc3C(=O)N(Cc3cccc(F)c3)C21 (stereo unspecified)
> 79 µM

Form field: reported IC50 of `CCOC(=O)c1cccc(NC(=O)c2cc(-c3cc(OC)c(OC)c(OC)c3)nc3ccc(F)cc23)c1`
> 79 µM

Fill blank: measured IC50 of the compound `COc1cc(-c2cc(C(=O)Nc3cccc(C#N)c3)c3ccccc3n2)cc(OC)c1OC` is ____.
> 79 µM

Fill in: IC50 of COc1ccc2c(c1OC)C(=O)N1c3ccccc3C(=O)N(Cc3ccccn3)C21 (stereo unspecified) is ___
> 79 µM

Name the recorded IC50 for `COc1cc(-c2cc(C(=O)NCC(=O)Nc3ccc(C(C)=O)cc3)c3cc(F)ccc3n2)cc(OC)c1OC` .
> 79 µM

Need IC50 of COc1ccc2c(c1OC)C(=O)N1c3ccccc3C(=O)N(Cc3cccc(C)c3)C21 (stereo unspecified) , thanks.
> 79 µM

Sample `COc1cc(-c2cc(C(=O)Nc3cccc(C(C)=O)c3)c3ccc(Cl)cc3n2)cc(OC)c1OC` — what was its IC50?
> 79 µM

Query: IC50; subject: COc1ccc2c(c1OC)C(=O)N1c3ccccc3C(=O)N(Cc3cccc(Br)c3)C21 (stereo unspecified)
> 79 µM

Give its IC50 value. Item: `COc1cc(-c2cc(C(=O)NCC(=O)Nc3cccc(C(C)=O)c3)c3ccccc3n2)cc(OC)c1OC`
8.19 µM

Look at this compound and give its reported IC50. COc1ccc2c(c1OC)C(=O)N1c3ccccc3C(=O)N(Cc3ccc(C)cc3)C21 (stereo unspecified)
> 79 µM

Quick check: IC50 of `COc1cc(-c2cc(C(=O)Nc3cccc(-c4nn[nH]n4)c3)c3ccccc3n2)cc(OC)c1OC` ?
> 79 µM

Item COc1ccc2c(c1OC)C(=O)N1c3ccccc3C(=O)N(Cc3c(Cl)cccc3Cl)C21 (stereo unspecified) has what recorded IC50?
> 79 µM

Consider the compound `COc1cc(-c2cc(C(=O)Nc3cccc(C(=O)O)c3)c3ccccc3n2)cc(OC)c1OC` and give its measured IC50.
> 79 µM

---

Exercise: state measured IC50 for each of the compounds provided.
- Tested on: HL-1
- protocol-summary: cardiomyocyte survival under oxidative or metabolic stress – cell-based, panel, H9c2 and HL-1, H2O2, 2-deoxyglucose, ATP luminescence, SAR follow-up (AID 651642)
- experimental-context: H9c2/HL-1 cardiomyocyte 2-deoxyglucose damage, run 1, with 2-deoxyglucose

Form field: reported IC50 of COc1ccc2c(c1OC)C(=O)N1c3ccccc3C(=O)N(Cc3ccncc3)C21 (stereo unspecified)
> 79 µM

Could you share which IC50 value was measured for `COc1ccc(NC(=O)CNC(=O)c2cc(-c3cc(OC)c(OC)c(OC)c3)nc3ccccc23)cc1` ?
4.04 µM

What value of IC50 has been recorded for this entry: `CCOC(=O)c1cccc(NC(=O)c2cc(-c3cc(OC)c(OC)c(OC)c3)nc3ccc(C)cc23)c1`
2.03 µM

Name the recorded IC50 for COc1ccc2c(c1OC)C(=O)N1c3ccccc3C(=O)N(Cc3c(Cl)cccc3Cl)C21 (stereo unspecified) .
6.31 µM

What value of IC50 has been recorded for this entry: COc1ccc2c(c1OC)C(=O)N1c3ccccc3C(=O)N(Cc3cccc(Cl)c3Cl)C21 (stereo unspecified)
0.792 µM

Entry under review: `COc1cc(-c2cc(C(=O)NCC(=O)Nc3cccc(C(C)=O)c3)c3cc(F)ccc3n2)cc(OC)c1OC` . Reported IC50?
3.22 µM

---

- Tested on: HL-1
- protocol-summary: cardiomyocyte survival under oxidative or metabolic stress – cell-based, panel, H9c2 and HL-1, H2O2, 2-deoxyglucose, ATP luminescence, SAR follow-up (AID 651642)
- experimental-context: H9c2/HL-1 cardiomyocyte 2-deoxyglucose damage, run 3, with 2-deoxyglucose
Can you tell me IC50 for the items I'm about to list?

Using the record for COc1ccc2c(c1OC)C(=O)N1c3ccccc3C(=O)N(Cc3cccc(F)c3)C21 (stereo not given) , report its IC50.
9.07 µM

Could you tell me which IC50 is on file for `COc1cc(-c2cc(C(=O)Nc3cccc(-c4nn[nH]n4)c3)c3ccccc3n2)cc(OC)c1OC` ?
48.6 µM

So what's the measured IC50 for this one? `COc1cc(-c2cc(C(=O)Nc3cccc(C(C)=O)c3)c3cccc(Cl)c3n2)cc(OC)c1OC`
> 79 µM

If you can, please state the reported IC50 value of `CCOC(=O)c1cccc(NC(=O)CNC(=O)c2cc(-c3cc(OC)c(OC)c(OC)c3)nc3ccc(F)cc23)c1` .
3.27 µM

Need IC50, item `CCOC(=O)c1ccc(NC(=O)c2cc(-c3cc(OC)c(OC)c(OC)c3)nc3ccccc23)cc1`
> 79 µM

---

- Tested on: HL-1
- protocol-summary: cardiomyocyte survival under oxidative or metabolic stress – cell-based, panel, H9c2 and HL-1, H2O2, 2-deoxyglucose, ATP luminescence, SAR follow-up (AID 651642)
- experimental-context: H9c2/HL-1 cardiomyocyte H2O2 oxidative damage, run 2, with H2O2
Give log10 of IC50 for every item shown.
Use the decimal logarithm of IC50 (µM).

Given `COc1cc(-c2cc(C(=O)NCC(=O)Nc3cccc(C(C)=O)c3)c3ccccc3n2)cc(OC)c1OC` , state its recorded log10 of IC50.
0.96

Field request: log10 of IC50 | item: `COc1cc(-c2cc(C(=O)Nc3cccc(C(C)=O)c3)c3ccccc3n2)cc(OC)c1OC`
0.75

Report log10 of IC50 for `CCOC(=O)c1cccc(NC(=O)CNC(=O)c2cc(-c3cc(OC)c(OC)c(OC)c3)nc3ccc(F)cc23)c1` please.
0.51

Consider the compound shown here: `COc1cc(-c2cc(C(=O)Nc3cccc(C(C)=O)c3)c3ccc(Cl)cc3n2)cc(OC)c1OC` What is its recorded log10 of IC50?
0.54

// lookup log10 of IC50 for `COC(=O)CNC(=O)c1cc(-c2cc(OC)c(OC)c(OC)c2)nc2ccccc12`
1.61

Would you kindly share the measured log10 of IC50 for `COc1ccc2nc(-c3cc(OC)c(OC)c(OC)c3)cc(C(=O)NCC(=O)Nc3ccc(C(C)=O)cc3)c2c1` ?
0.87
